# reported pest or weed control at 70 g/ha; entries follow
- System: LAMSS
- Assay name: Post-emergent Test III, herbicidal activity in wheat and barley
- Type: in vivo
- Condition context: post-emergence, 504 h; 70 g ai/ha; read-out: Visual Growth Reduction (%) 21 Days After Application LAMSS

1) Nc1c(F)c(-c2ccc(I)cc2)nc(C(=O)O)c1Cl | 95 to 100%
2) Nc1cc(-c2ccc(Br)c(F)c2F)nc(C(=O)O)c1Cl | 95 to 100%

The reported pest or weed control at 70 g/ha of the compound `Nc1c(F)c(-c2ccc(OC(F)F)cc2)nc(C(=O)O)c1Cl` was 85 to 94%

The reported pest or weed control at 70 g/ha of the compound `COC(=O)c1nc(-c2ccc(Br)c(F)c2F)c(F)c(N)c1Cl` was 95 to 100%

The reported pest or weed control at 70 g/ha of the compound `Nc1c(F)c(-c2ccc(Br)cc2)nc(C(=O)O)c1Cl` was 95 to 100%
